# EXPERIMENTAL PROTOCOL: Probe fluorescence ratio response to stearic acid relative to ADIFAB2
# Format: binding
# MEASUREMENT SETUP: response relative to ADIFAB2
Hi there, I'd appreciate the recorded DR/DR SA for every entry that follows.
One number for each entry.

Solved cases below.
{"columns": ["MOLECULE", "NUMERIC RESULT"],
 "data": [
  ["72T 73W 74S (protein, listed as Rattus norvegicus, PEPTIDE (1)...(131) wild-type rat intestinal fatty acid binding protein) AFDGTWKVDRNENYEKFMEKMGINVVKRKLGAHDNLKLTITQEGNKFTVKESSNFRNIDVVFELGVDFAYSTWSGTELTGTWTMEGNKLVGKFKRVDNGKELIAVREISGNELIQTYTYEGVEAKRIFKKE", 1.620],
  ["73W 72A 74F (protein, listed as Rattus norvegicus, PEPTIDE (1)...(131) wild-type rat intestinal fatty acid binding protein) AFDGTWKVDRNENYEKFMEKMGINVVKRKLGAHDNLKLTITQEGNKFTVKESSNFRNIDVVFELGVDFAYSAWFGTELTGTWTMEGNKLVGKFKRVDNGKELIAVREISGNELIQTYTYEGVEAKRIFKKE", 1.485]
]}

Task: Given the entry 14L 18L 31Y 73L 117A 72A (protein, listed as Rattus norvegicus, PEPTIDE (1)...(131) wild-type rat intestinal fatty acid binding protein) AFDGTWKVDRNENLEKFLEKMGINVVKRKLYAHDNLKLTITQEGNKFTVKESSNFRNIDVVFELGVDFAYSALDGTELTGTWTMEGNKLVGKFKRVDNGKELIAVREISGNELIQTATYEGVEAKRIFKKE , report its measured DR/DR SA.
Result: 0.762
